Data origin, for the record: patent US20050048579A1

List of IC50 values.
Target: LFA-1 binding to ICAM-1 (JY cells) (Homo sapiens, UniProt P05362)
Construct: endogenous in cells; host or cells: JY cells
Sequence (P05362 28-532): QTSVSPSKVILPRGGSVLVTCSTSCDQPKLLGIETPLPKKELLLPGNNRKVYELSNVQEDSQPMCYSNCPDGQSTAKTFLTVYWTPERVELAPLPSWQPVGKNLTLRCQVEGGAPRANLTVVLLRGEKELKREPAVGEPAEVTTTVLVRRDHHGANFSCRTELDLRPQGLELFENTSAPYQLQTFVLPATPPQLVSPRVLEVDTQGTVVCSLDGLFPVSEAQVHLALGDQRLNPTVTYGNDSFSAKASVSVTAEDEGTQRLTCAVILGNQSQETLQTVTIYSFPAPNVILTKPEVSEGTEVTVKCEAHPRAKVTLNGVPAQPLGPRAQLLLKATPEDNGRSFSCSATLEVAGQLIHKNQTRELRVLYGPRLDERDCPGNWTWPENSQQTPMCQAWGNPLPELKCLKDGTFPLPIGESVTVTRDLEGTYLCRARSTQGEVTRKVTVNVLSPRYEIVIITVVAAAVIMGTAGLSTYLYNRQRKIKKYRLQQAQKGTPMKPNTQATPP
Assay: LFA-1:ICAM-1 dependent cell aggregation assay, slightly modified (360 minute incubations)
Type: cell-based
Settings: cell aggregation
Bridge positions count the residues as written; N and C are the ends. Peptide text beside a SMILES is read from it.

# example entries with known answers
{"columns": ["compound", "IC50"],
 "data": [
  ["CSCC[C@@H]1NC(=O)[C@H](CCCNC(=N)N)NC(=O)[C@H](CC(C)C)NC(=O)[C@H](CC(C)C)NC(=O)[C@@H](N)CSSC[C@@H](C(=O)O)NC(=O)[C@H](C(C)C)NC(=O)[C@H](CO)NC(=O)[C@H](CCCNC(=N)N)NC1=O [IP02-V8] (H-CLLRMRSVC-OH; disulfide 1-9; N-terminus and C-terminus assumed)", "700 µM"],
  ["CSCC[C@@H]1NC(=O)[C@H](CCCCN)NC(=O)[C@H](CC(C)C)NC(=O)[C@H](CC(C)C)NC(=O)[C@@H](N)CSSC[C@@H](C(=O)O)NC(=O)[C@H](C)NC(=O)[C@H](CO)NC(=O)[C@H](CCCNC(=N)N)NC1=O [IP02-K4, CLLKMRSAC] (H-CLLKMRSAC-OH; disulfide 1-9; N-terminus and C-terminus assumed)", "105 to 190 µM"]
]}

Now consider the entry below.
GET /values?readout=IC50&item= CSCC[C@@H]1NC(=O)[C@H](CCCNC(=N)N)NC(=O)[C@H](CC(C)C)NC(=O)[C@H](CC(C)C)NC(=O)[C@@H](N)CSSC[C@@H](C(=O)O)NC(=O)[C@H](CC(C)C)NC(=O)[C@H](CO)NC(=O)[C@H](CCCNC(=N)N)NC1=O [IP02-L8, CLLRMRSLC] (H-CLLRMRSLC-OH; disulfide 1-9; N-terminus and C-terminus assumed)
> 1000 µM
